A collection of compounds and their measured hit status in SAFIRE screen
Tested on: Salmonella enterica serovar Typhimurium (S.Tm) within RAW 264.7 murine macrophages
Test: SAFIRE: fluorescence microscopy assay of S.Tm load within macrophages
Type: cell-based
Conditions: Maybridge HitFinder v11 library screened at 25 μM
recorded endpoint: hit status in SAFIRE screen

INSERT INTO measurements (compound, recorded_endpoint, result) VALUES
  ('Nc1c2ccccc2nc2ccccc12', 'hit status in SAFIRE screen', '9-aminoacridine^1'),
  ('CC1(C)S[C@@H]2[C@H](N)C(=O)N2[C@H]1C(=O)O [6-aminopenicillinate]', 'hit status in SAFIRE screen', '6-aminopenicillinate^2');
